Property: pEC50; scope: individual compounds
Target: human TLR7 (Homo sapiens (Human))
Sequence (Q9NYK1 27-1049): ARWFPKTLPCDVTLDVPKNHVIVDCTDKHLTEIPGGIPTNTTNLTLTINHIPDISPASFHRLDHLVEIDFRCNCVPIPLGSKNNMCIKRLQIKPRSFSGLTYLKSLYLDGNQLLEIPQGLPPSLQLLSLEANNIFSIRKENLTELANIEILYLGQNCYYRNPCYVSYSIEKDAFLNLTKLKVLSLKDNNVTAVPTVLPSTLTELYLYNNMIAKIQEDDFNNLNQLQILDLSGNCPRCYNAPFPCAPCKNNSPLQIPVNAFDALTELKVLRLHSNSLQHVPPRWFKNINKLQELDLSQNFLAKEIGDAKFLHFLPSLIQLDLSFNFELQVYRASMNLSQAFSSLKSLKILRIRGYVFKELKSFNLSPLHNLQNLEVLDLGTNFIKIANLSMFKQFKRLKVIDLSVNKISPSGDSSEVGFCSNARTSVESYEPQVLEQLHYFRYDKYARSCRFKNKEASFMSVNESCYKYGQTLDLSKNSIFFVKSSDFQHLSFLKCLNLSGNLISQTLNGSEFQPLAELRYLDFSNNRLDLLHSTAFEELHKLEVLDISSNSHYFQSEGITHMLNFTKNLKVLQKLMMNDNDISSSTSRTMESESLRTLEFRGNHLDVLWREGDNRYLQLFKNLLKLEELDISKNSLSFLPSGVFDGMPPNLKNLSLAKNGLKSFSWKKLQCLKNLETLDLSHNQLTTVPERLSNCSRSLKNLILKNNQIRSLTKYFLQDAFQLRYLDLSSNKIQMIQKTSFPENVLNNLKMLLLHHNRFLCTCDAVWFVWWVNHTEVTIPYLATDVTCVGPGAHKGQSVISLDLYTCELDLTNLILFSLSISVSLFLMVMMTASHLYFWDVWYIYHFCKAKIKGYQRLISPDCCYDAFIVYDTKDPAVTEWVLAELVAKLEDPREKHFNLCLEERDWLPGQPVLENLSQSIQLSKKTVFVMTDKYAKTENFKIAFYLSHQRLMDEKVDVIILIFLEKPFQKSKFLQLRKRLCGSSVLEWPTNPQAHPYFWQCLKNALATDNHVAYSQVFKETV
Assay: HEK-Blue human TLR7 cells, NF-κB SEAP reporter assay
Conditions: stimulation for 20 hours
Procedure: For TLR8 and TLR7 activity testing, HEK-Blue human TLR8 or TLR7 cells (Invivogen, San Diego, Calif., USA) are used, respectively. These cells are designed for studying the stimulation of human TLR8 or TLR7 by monitoring the activation of NF-κB. […] The cell culture supernatant SEAP reporter activity was determined using Quanti Blue kit (Invivogen, San Diego, Ca, USA) at a wavelength of 640 nm, a detection medium that turns purple/blue in the presence of alkaline phosphatase. […]
pEC50: −log10 of the molar value.

CCCN(CCC)C(=O)C1=Cc2ccc(C(=O)Nc3ccc(CCCCN)nc3)cc2N=C(N)C1 < 4.00
C#CCN(CCC)C(=O)C1=Cc2ccc(C(=O)Nc3cccc(C)c3)cc2N=C(N)C1 < 4.00

Okay, now this compound:
Form: compound = `CCCN(CCC)C(=O)C1=Cc2ccc(C(=O)Nc3cncc(CCc4ccccc4)c3)cc2N=C(N)C1` ; pEC50 = < 4.00

###

Target: human TLR8 (Homo sapiens (Human), UniProt Q9NR97)
Sequence (Q9NR97 27-1041): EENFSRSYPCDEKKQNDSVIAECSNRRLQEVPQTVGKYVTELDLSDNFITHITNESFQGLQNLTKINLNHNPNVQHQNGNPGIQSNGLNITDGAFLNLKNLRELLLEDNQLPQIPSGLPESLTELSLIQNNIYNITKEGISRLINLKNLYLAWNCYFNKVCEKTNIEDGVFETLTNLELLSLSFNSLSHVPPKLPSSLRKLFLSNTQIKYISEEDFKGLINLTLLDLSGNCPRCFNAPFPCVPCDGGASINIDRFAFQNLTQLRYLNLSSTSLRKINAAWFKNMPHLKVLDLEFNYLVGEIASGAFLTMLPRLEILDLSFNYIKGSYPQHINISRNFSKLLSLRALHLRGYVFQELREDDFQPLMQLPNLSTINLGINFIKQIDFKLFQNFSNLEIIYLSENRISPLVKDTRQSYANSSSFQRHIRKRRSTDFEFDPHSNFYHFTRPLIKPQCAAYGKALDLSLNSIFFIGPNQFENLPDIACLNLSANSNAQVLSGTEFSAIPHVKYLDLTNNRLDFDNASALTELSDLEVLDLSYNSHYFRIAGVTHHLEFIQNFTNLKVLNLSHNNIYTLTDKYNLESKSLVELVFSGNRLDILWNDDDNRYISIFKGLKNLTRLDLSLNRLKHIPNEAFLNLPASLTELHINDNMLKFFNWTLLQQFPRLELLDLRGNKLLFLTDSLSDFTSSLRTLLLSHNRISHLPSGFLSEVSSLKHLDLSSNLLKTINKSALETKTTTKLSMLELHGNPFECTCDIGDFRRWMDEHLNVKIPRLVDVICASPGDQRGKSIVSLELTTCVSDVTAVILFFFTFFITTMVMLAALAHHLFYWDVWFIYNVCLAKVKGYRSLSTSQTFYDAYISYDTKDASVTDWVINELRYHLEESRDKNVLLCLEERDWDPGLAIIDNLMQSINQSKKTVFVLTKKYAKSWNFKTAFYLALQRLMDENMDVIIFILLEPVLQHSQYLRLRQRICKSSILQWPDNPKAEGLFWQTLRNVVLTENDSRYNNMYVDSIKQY
Test: HEK-Blue human TLR8 cells, NF-κB SEAP reporter assay
Conditions: stimulation for 20 hours
Method: For TLR8 and TLR7 activity testing, HEK-Blue human TLR8 or TLR7 cells (Invivogen, San Diego, Calif., USA) are used, respectively. These cells are designed for studying the stimulation of human TLR8 or TLR7 by monitoring the activation of NF-κB. […] The cell culture supernatant SEAP reporter activity was determined using Quanti Blue kit (Invivogen, San Diego, Ca, USA) at a wavelength of 640 nm, a detection medium that turns purple/blue in the presence of alkaline phosphatase. […]
pEC50: −log10 of the molar value.
readout: pEC50

molecule	target under test	readout	value
CCCN(CCC)C(=O)C1=Cc2ccc(C(=O)Nc3cccnc3)cc2N=C(N)C1 [Example 1]	human TLR8 (Homo sapiens (Human), UniProt Q9NR97)	pEC50	9.00
CCCN(CCC)C(=O)C1=Cc2ccc(C(=O)Nc3cncc(CCc4ccc(CN)cc4)c3)cc2N=C(N)C1 [Example 71]	human TLR8 (Homo sapiens (Human), UniProt Q9NR97)	pEC50	7.54
CCCN(CCC)C(=O)C1=Cc2ccc(C(=O)Nc3cccc(CCCCCN)c3)cc2N=C(N)C1 [Example 57]	human TLR8 (Homo sapiens (Human), UniProt Q9NR97)	pEC50	7.60
CCCN(CCC)C(=O)C1=Cc2ccc(C(=O)Nc3cncc(OCC)c3)cc2N=C(N)C1 [Example 44]	human TLR8 (Homo sapiens (Human), UniProt Q9NR97)	pEC50	9.00
CCCN(CCC)C(=O)C1=Cc2ccc(C(=O)Nc3ccn(C)n3)cc2N=C(N)C1 [Example 37]	human TLR8 (Homo sapiens (Human), UniProt Q9NR97)	pEC50	7.64

I. CCCN(CCC)C(=O)C1=Cc2ccc(C(=O)Nc3cccc(OCCOCCN)c3)cc2N=C(N)C1 [Example 45]
II. CCCN(CCC)C(=O)C1=Cc2ccc(C(=O)Nc3ccc(CN)cc3)cc2N=C(N)C1 [Example 24]
III. CCCN(CCC)C(=O)C1=Cc2ccc(C(=O)Nc3cccc(OC)c3)cc2N=C(N)C1 [Example 30]
// query // ranking: key=pEC50, reverse=True Arrange the labels as the request states and list them.
// result III, II, I
